Here we list compounds with their recorded pIC50 when tested on ALK2 (Homo sapiens (Human), UniProt Q04771).
Sequence (Q04771 21-509): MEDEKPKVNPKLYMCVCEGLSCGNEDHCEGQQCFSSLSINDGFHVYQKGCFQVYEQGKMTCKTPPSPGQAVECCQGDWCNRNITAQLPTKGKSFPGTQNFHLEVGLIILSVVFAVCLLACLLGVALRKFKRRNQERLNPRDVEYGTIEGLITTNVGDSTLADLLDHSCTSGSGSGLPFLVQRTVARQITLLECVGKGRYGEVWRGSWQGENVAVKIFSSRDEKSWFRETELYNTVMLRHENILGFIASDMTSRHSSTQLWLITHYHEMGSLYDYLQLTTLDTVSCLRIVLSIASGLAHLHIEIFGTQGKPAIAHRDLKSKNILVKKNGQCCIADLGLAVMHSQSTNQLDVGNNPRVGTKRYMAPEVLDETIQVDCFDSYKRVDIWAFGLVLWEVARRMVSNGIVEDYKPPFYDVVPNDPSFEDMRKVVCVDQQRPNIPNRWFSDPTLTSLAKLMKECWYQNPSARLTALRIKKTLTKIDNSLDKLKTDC
pIC50: −log10 of the molar value.

compound | subject of test | result value
OC[C@@H]1CCCN1c1nc(Nc2cc(-c3ccccc3)[nH]n2)nc2ccoc12 [Compound 354b] | ALK2 (Homo sapiens (Human), UniProt Q04771) | < 6.00

For record COc1cc(-n2cnc(Nc3nc(N4CCC[C@H]4CO)nc4sc(CN5CCN(C)CC5)cc34)c2)cc(OC)c1OC [Compound 104b] the listed pIC50 is > 7.00

For record COc1cc(-n2cnc(Nc3cc4ccccc4cn3)c2)cc(OC)c1OC [Compound 195b] the listed pIC50 is > 7.00

For record COc1cc(-n2cnc(Nc3nc(N4CCC[C@@H]4CO)nc4cc(Br)ccc34)c2)cc(OC)c1OC [Compound 382a] the listed pIC50 is > 7.00

For record COc1cc(-n2cnc(Nc3nc(N4CCC[C@H]4CO)nc4cc(CN5CCCC5)ccc34)c2)cc(OC)c1OC [Compound 399f] the listed pIC50 is > 7.00
